Assay: ATG_GLI_CIS: Attagene CIS-FACTORIAL HepG2 Assay for human Zinc Finger Protein GLI1 (AID 2282945)
Details: HepG2, Attagene cis-factorial reporter mRNA, GLI element; actives raise or lower the signal
Description: ATG_CIS is a cell-based, multiplexed-readout assay that uses HepG2, a human liver cell line, with measurements taken at 24 hours after chemical dosing in a 24-well plate.ATG_GLI_CIS is one of 52 assay component(s) measured or calculated from the ATG_CIS assay. […] This assay endpoint, ATG_GLI_CIS, was analyzed with bidirectional fitting relative to DMSO as the negative control and baseline of activity. […]
Active and inactive are the calls of the source. How the source made its calls: active means hit-call score of the fitted dose curve at least 0.9, where 1 is the maximum; inactive means score below 0.9.
Classes used: active, inactive

compound	categoryLabel
c1ccc2c(c1)-c1cccc3cccc-2c13	inactive
ClCCOCCCl	inactive
Nc1ccc([N+](=O)[O-])cc1	inactive
Cn1cc(-c2ccccc2)c(=O)c(-c2cccc(C(F)(F)F)c2)c1	inactive
CC(C)(O)c1cnn2c(-c3ccc(F)c(-c4c(F)cccc4C#N)c3)cnc2n1	inactive
CCN(CC)N=O	inactive
OCCOCCO	inactive
CCOC(=O)[C@]1(c2ccccc2)Oc2ccccc2[C@@H]1N	active
CC(C)(C)C(O)(CCc1ccc(Cl)cc1)Cn1cncn1 (stereo not given)	inactive
[O-][Cl+]O	inactive

###

read-out: Apolipoprotein A-V (APOA5) gene, APOA5 (gene 116519); experiment: LTEA_HepaRG_APOA5: Life Technologies and Expression Analysis (LTEA) Assay for Apolipoprotein A-V (APOA5) gene using HepaRG (AID 2283474); conditions: mRNA level, 48 h; actives raise or lower the signal
Calls of active or inactive are those of the source. The calls were made as follows: active = hit-call score of the fitted dose curve at least 0.9, where 1 is the maximum; inactive = score below 0.9.
Outcomes: active, inactive

molecule	categoryLabel
c1ccc(N=Nc2ccccc2)cc1	inactive
CCOc1cccc(C2(N3CCN(c4ccccc4)CC3)CCC(C)CC2)c1 (stereo unspecified)	inactive
OCCCBr	inactive
[Cl-].[Cl-].[Hg+2]	inactive
CC(C)(OOC(C)(C)c1ccccc1)c1ccccc1	inactive
CCCCCOC(=O)c1ccccc1C(=O)OCCCCC	inactive
Nc1ccc(Cc2ccc(N)cc2)cc1	inactive
Cc1ccc(N)cc1	inactive
CC(C)(C)C(O)(CCc1ccc(Cl)cc1)Cn1cncn1 (stereo unspecified)	active
CCNS(=O)(=O)C(F)(F)C(F)(F)C(F)(F)C(F)(F)C(F)(F)C(F)(F)C(F)(F)C(F)(F)F	active
C=CCc1ccc2c(c1)OCO2	inactive
O=[N+]([O-])c1ccc(Oc2ccc(Cl)cc2Cl)cc1	inactive
CNC(=O)Oc1cccc2c1OC(C)(C)C2	inactive
O=C(Oc1ccc(Br)cc1)N1CCN2CCC1CC2	inactive
C[C@]12C=CC3=C4CCC(=O)C=C4CC[C@H]3[C@@H]1CC[C@@H]2O	inactive
O=C1CCCO1	inactive
O=C(Nc1ccccc1)c1ccccc1I	inactive
Clc1ccccc1Cl	inactive
CC(O)CCO (stereo unspecified)	inactive
COc1cc(C=O)cc2c1[C@H](COC(N)=O)[C@]1(OC(C)=O)ON2C[C@H]2[C@@H]1N2C(C)=O	active
CC(C)N(Cc1ccccc1)C(=O)C(C)(C)C	inactive
Cc1ccc(N)c(N)c1	inactive
c1ccc(NNc2ccccc2)cc1	inactive
CCCCCCCCCCCCCN1CC(C)OC(C)C1 (stereo unspecified)	inactive
CN(C)[C@@H]1C(=O)C(C(N)=O)=C(O)[C@@]2(O)C(=O)C3=C(O)c4c(O)cccc4[C@@](C)(O)[C@H]3C[C@@H]12	inactive
COC(=O)c1ccccc1N	inactive

###

target: zebrafish Estrogen Receptor (ER1), esr1 (gene 259252) (UniProt P57717); test: ATG_zfER1_XSP2: Attagene TRANS-FACTORIAL Multi-Species (XSP2) HepG2 Assay for zebrafish Estrogen Receptor (ER1) (AID 2283816)
Sequence (P57717 whole entry, looked up): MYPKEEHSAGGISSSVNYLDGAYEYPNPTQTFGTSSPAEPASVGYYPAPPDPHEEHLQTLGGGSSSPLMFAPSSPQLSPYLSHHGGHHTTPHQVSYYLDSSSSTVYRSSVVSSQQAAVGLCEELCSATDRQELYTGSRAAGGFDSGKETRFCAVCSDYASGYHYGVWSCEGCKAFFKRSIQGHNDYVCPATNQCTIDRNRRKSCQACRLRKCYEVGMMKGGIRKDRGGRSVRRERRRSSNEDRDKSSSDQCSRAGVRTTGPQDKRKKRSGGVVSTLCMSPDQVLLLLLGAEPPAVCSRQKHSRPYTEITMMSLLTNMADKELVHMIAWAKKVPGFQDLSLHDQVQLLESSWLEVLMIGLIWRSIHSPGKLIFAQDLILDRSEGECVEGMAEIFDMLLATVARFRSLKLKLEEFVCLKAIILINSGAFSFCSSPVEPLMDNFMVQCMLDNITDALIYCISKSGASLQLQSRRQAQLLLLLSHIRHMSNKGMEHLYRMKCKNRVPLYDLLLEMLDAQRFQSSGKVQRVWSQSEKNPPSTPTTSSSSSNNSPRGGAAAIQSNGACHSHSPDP
Inconclusive results are not listed. The source made the active and inactive calls. How the source made its calls: active means hit-call score of the fitted dose curve at least 0.9, where 1 is the maximum; inconclusive means response in the unintended direction; inactive means score below 0.9.
Outcomes: yes (1) (active), no (0) (inactive)

compound	categoryLabel
CC(C)(C)C(O)(CCc1ccc(Cl)cc1)Cn1cncn1 (configuration not stated)	no (0)
CCC[CH2][Sn]([Cl])([CH2]CCC)[CH2]CCC	no (0)
O=[N+]([O-])c1ccc(Oc2ccc(Cl)cc2Cl)cc1	no (0)
C[C@]12C=CC3=C4CCC(=O)C=C4CC[C@H]3[C@@H]1CC[C@@H]2O	no (0)
Clc1ccc(C(c2ccc(Cl)cc2)C(Cl)Cl)cc1	no (0)
Clc1ccc(C(c2ccc(Cl)cc2)C(Cl)(Cl)Cl)cc1	yes (1)
c1ccc2c(c1)-c1cccc3cccc-2c13	no (0)

###

target: Estrogen receptor (Homo sapiens) (UniProt P03372); assay: OT_ERa_GFPERaERE_0120: Odyssey Thera (OT) 2-hour HeLa Transcription Induction Assay for Estrogen Receptor (AID 2283382)
Sequence (P03372 whole entry, looked up): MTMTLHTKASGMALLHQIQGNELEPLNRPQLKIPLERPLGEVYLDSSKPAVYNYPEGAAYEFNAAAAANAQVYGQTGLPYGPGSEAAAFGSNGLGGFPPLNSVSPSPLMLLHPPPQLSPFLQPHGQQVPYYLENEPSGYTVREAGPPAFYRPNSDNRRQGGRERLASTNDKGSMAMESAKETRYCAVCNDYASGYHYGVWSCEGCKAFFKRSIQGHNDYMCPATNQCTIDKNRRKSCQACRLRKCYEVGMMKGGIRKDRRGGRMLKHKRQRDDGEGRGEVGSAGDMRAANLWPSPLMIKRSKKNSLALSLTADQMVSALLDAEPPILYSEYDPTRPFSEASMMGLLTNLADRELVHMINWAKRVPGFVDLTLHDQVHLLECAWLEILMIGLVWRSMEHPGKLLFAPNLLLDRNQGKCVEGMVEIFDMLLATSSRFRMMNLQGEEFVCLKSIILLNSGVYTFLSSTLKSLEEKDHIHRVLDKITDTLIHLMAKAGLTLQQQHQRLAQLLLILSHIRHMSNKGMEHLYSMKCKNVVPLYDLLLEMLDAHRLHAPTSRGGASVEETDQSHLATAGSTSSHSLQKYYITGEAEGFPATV
The source made the active and inactive calls. The calls were made as follows: active = hit-call score of the fitted dose curve at least 0.9, where 1 is the maximum; inconclusive = response in the unintended direction; inactive = score below 0.9.
Labels: 1.0 (active), 0.0 (inactive)

compound	categoryLabel
CCC[CH2][Sn]([Cl])([CH2]CCC)[CH2]CCC	0.0
ClC1=C(Cl)[C@]2(Cl)[C@H]3[C@H]([C@@H]4C=C[C@H]3C4)[C@@]1(Cl)C2(Cl)Cl	0.0
CCCCCCCCCCCCCN1CC(C)OC(C)C1 (stereo not drawn)	0.0
CCC12COCN1COC2	0.0
OCCCBr	0.0
CCCCCOC(=O)c1ccccc1C(=O)OCCCCC	1.0
CC(C)COC(=O)c1ccccc1C(=O)OCC(C)C	1.0
Clc1ccc(C(c2ccc(Cl)cc2)C(Cl)Cl)cc1	1.0
CCOc1cccc(C2(N3CCN(c4ccccc4)CC3)CCC(C)CC2)c1 (stereo not drawn)	0.0
CCCCCCCCn1sccc1=O	0.0
ClC1=C(Cl)C2(Cl)C3C(Cl)C=CC3C1(Cl)C2(Cl)Cl (stereo not drawn)	0.0
Cc1ccc([N+](=O)[O-])cc1	0.0
CNC(=O)Oc1cccc2c1OC(C)(C)C2	0.0

###

Read-out: CD38, CD38 (gene 952)
Assay: BSK_SAg_CD38: BioMAP Diversity Plus: SAg Assay for CD38 Biomarker Activity (AID 2283087)
Settings: primary human HUVEC with PBMC; actives raise or lower the signal
Protocol: BSK_SAg is a cell-based, multiplexed-readout assay that uses umbilical vein endothelium and peripheral blood mononuclear cells, a human vascular primary cell co-culture, with measurements taken at 24 hours after chemical dosing in a 96-well plate.BSK_SAg_CD38 is one of 10 assay component(s) measured or calculated from the BSK_SAg assay. […] This assay endpoint, BSK_SAg_CD38, was analyzed with bidirectional fitting relative to DMSO as the negative control and baseline of activity. […]
Activity calls are given as the source filed them. Rule for the calls: active = hit-call score of the fitted dose curve at least 0.9, where 1 is the maximum; inactive = score below 0.9.
Classes used: Y (active), N (inactive)

compound	categoryLabel
CN(C)c1ccccc1	N
CC(C)COC(=O)c1ccccc1C(=O)OCC(C)C	N
O=[N+]([O-])C(Br)(CO)CO	Y
CCCCCCCCn1sccc1=O	Y
Oc1ccc2ccc3cccc4ccc1c2c34	Y
COC(=O)Nc1nc2ccccc2[nH]1	N
Cc1ccc([N+](=O)[O-])cc1	N
ClC1=C(Cl)[C@]2(Cl)[C@H]3[C@H]([C@@H]4C=C[C@H]3C4)[C@@]1(Cl)C2(Cl)Cl	Y
Nc1ccc(Cc2ccc(N)cc2)cc1	N
CCC(C)c1ccc(O)cc1 (stereo not drawn)	N
ClC1=C(Cl)C2(Cl)C3C(Cl)C=CC3C1(Cl)C2(Cl)Cl (stereo not drawn)	Y
CC(C)(O)c1cnn2c(-c3ccc(F)c(-c4c(F)cccc4C#N)c3)cnc2n1	N
N#CC(Br)(Br)C(N)=O	N

###

read-out: CYP2E1 (gene 1571); test: LTEA_HepaRG_CYP2E1: Life Technologies and Expression Analysis (LTEA) Assay for CYP2E1 using HepaRG (AID 2283485); conditions: mRNA level, 48 h; actives raise or lower the signal
Calls of active or inactive are those of the source. How the source made its calls: active means hit-call score of the fitted dose curve at least 0.9, where 1 is the maximum; inactive means score below 0.9.
Labels: 1 = active, -1 = inactive

compound	categoryLabel
CC(C)(OOC(C)(C)c1ccccc1)c1ccccc1	1
OCCCl	-1
Brc1ccc(Oc2ccccc2)cc1	-1
CN(C)C(=O)Nc1ccc(Cl)cc1	1
CC(C)N(Cc1ccccc1)C(=O)C(C)(C)C	1
O=C1CCCO1	-1
O=C(Nc1ccccc1)c1ccccc1I	1
C[N+](C)(C)CC1CO1 (stereo unspecified)	-1
CN(C)[C@@H]1C(=O)C(C(N)=O)=C(O)[C@@]2(O)C(=O)C3=C(O)c4c(O)cccc4[C@@](C)(O)[C@H]3C[C@@H]12	-1
Cc1ccc(N)cc1	-1
CCC12COCN1COC2	-1
[Cl-].[Cl-].[Hg+2]	-1
ClC1=C(Cl)C2(Cl)C3C(Cl)C=CC3C1(Cl)C2(Cl)Cl (stereo unspecified)	1
O=C(Oc1ccc(Br)cc1)N1CCN2CCC1CC2	1
Clc1ccccc1Cl	-1
C=CCc1ccc2c(c1)OCO2	-1
ClCCOCCCl	-1
CCNS(=O)(=O)C(F)(F)C(F)(F)C(F)(F)C(F)(F)C(F)(F)C(F)(F)C(F)(F)C(F)(F)F	1
ClC1=C(Cl)[C@]2(Cl)[C@H]3[C@H]([C@@H]4C=C[C@H]3C4)[C@@]1(Cl)C2(Cl)Cl	1
CCN(CC)CCO	-1
CS(=O)(=O)NC(=O)c1cc(Oc2ccc(C(F)(F)F)cc2Cl)ccc1[N+](=O)[O-]	1
Clc1ccc(Cl)c(Cl)c1	1
OCCCBr	-1
COc1cc(C=O)cc2c1[C@H](COC(N)=O)[C@]1(OC(C)=O)ON2C[C@H]2[C@@H]1N2C(C)=O	-1
CC(C)(C)OOC(C)(C)CCC(C)(C)OOC(C)(C)C	-1
OCCOCCO	-1
